# experimental target: Fibroblast growth factor receptor 2 (Homo sapiens)
# Sequence (P21802 whole entry): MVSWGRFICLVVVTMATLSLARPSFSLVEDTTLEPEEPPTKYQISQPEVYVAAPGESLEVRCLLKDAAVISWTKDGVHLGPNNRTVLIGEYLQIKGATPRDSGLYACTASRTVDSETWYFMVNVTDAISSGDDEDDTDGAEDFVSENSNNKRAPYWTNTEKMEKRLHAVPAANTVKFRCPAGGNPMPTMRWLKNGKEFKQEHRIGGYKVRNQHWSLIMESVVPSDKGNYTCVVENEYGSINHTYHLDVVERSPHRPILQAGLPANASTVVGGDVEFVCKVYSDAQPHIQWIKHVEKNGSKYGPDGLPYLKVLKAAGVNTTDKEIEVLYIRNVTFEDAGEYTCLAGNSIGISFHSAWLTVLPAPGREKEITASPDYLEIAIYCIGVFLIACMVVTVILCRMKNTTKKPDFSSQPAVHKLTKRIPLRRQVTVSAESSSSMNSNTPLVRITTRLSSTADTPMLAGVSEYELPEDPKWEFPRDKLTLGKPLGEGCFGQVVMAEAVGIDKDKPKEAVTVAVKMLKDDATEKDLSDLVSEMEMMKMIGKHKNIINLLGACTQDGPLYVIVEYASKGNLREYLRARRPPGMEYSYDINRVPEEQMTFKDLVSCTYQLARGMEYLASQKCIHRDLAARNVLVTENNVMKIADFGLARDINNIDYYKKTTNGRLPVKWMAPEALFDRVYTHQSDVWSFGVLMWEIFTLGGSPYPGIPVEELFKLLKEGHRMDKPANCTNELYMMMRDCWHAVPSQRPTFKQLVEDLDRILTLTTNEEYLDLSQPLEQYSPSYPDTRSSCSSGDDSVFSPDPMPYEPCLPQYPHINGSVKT
# assay procedure: Inhibition of FGFR2 (unknown origin)
property label: pIC50
In plain terms, pIC50 is the concentration in mol/L turned into minus its base-10 logarithm.

Output pIC50 of `C=CC(=O)N[C@H]1CCOC[C@H]1Nc1ncc2cc(-c3c(Cl)c(OC)cc(OC)c3Cl)ccc2n1`
6.31

* * *

# experimental target: Fibroblast growth factor receptor 3 (Homo sapiens, UniProt P22607)
# Sequence (P22607 whole entry): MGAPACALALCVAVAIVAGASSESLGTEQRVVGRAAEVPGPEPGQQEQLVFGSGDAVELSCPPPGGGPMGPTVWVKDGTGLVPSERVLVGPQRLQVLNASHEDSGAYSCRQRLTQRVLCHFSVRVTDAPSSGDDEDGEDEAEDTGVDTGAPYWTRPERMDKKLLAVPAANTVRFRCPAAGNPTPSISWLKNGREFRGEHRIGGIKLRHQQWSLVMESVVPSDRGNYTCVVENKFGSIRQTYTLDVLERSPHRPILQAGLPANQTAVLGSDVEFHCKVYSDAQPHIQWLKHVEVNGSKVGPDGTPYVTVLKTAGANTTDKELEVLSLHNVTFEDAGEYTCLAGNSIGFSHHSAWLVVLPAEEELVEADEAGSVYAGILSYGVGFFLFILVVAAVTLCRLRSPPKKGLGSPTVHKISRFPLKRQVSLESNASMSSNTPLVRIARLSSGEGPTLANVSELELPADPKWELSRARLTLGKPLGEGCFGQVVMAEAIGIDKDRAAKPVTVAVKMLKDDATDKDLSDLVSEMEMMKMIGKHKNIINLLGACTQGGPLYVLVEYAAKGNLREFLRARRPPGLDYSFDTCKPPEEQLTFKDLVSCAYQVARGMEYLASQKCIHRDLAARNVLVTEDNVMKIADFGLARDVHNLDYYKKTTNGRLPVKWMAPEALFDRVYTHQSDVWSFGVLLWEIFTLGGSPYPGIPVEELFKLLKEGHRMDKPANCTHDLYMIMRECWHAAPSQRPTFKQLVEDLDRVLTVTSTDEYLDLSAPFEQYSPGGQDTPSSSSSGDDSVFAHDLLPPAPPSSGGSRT
# assay procedure: Inhibition of FGFR3 (unknown origin) incubated for 30 mins by ADP-Glo assay
pIC50: −log10 of the molar value.
property label: pIC50

Output pIC50 of `C=CC(=O)Nc1cc(F)cc(Cl)c1Nc1nc(C)c(OCc2c(F)c(OC)cc(OC)c2F)c(C)n1`
< 4.52
